- TARGET_OR_SYSTEM: KRAS G13C (Homo sapiens, UniProt P01116+P62937, G13C)
- Sequence (P01116 1-169 isoform P01116-2 G13C): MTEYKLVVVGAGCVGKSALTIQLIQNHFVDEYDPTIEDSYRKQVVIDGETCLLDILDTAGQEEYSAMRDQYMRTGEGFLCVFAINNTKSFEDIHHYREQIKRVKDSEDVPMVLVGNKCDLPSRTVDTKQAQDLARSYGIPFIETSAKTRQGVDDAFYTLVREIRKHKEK
- Sequence (P62937 whole entry): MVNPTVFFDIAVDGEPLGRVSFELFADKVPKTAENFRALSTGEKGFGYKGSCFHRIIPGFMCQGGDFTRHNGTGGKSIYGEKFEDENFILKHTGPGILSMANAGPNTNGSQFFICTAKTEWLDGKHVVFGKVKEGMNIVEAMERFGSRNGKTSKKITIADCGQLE
- PROTOCOL_DETAILS: Disruption of BRAF RBD interaction with Ras (FRET / MOA assay, with Cyclophilin A)
- Type: biochemical
- SETTINGS: read-out: KRAS G13C FRET data, IC50
pIC50: −log10 of the molar value.
# pIC50 values compiled below

Field: example entries. Status: answers known.
INSERT INTO assay_data (molecule, measurement_type, measured) VALUES
  ('CCn1c(-c2cccnc2[C@H](C)OC)c2c3cc(ccc31)-c1csc(n1)C[C@H](NC(=O)[C@H](C(C)C)N(C)C(=O)N1CC([C@@H](C)N(C)C)C1)C(=O)N1CCC[C@H](N1)C(=O)OCC(C)(C)C2 (atropisomer, axis not shown) [Example A458]', 'pIC50', '6.00 to 7.00'),
  ('CCn1c(-c2cccnc2[C@H](C)OC)c2c3cc(ccc31)-c1csc(n1)C[C@H](NC(=O)[C@H](C(C)C)N(C)C(=O)N1C[C@H]3CN(C)C[C@H]3C1)C(=O)N1CCC[C@H](N1)C(=O)OCC(C)(C)C2 [Example A313]', 'pIC50', '6.00 to 7.00'),
  ('CCn1c(-c2cccnc2[C@H](C)OC)c2c3cc(ccc31)-c1cc(O)cc(c1)C[C@H](NC(=O)[C@H](C(C)C)N(C)C(=O)[C@H]1CCN(C(=O)[C@H]3CCCN3)C1)C(=O)N1CCC[C@H](N1)C(=O)OCC(C)(C)C2 [Example A378]', 'pIC50', '7.00 to 8.00'),
  ('CCn1c(-c2cnccc2COC)c2c3cc(ccc31)-c1cc(O)cc(c1)C[C@H](NC(=O)C1CCCC1C(F)F)C(=O)N1CCC[C@H](N1)C(=O)OCC(C)(C)C2 (stereo partly drawn) [Example A261]', 'pIC50', '5.00 to 6.00'),
  ('CCn1c(-c2cccnc2[C@H](C)OC)c2c3cc(ccc31)-c1csc(n1)C[C@H](NC(=O)[C@H](C(C)C)N(C)C(=O)N(C)CC(C)C)C(=O)N1CCC[C@H](N1)C(=O)OCC(C)(C)C2 [Example A332]', 'pIC50', '6.00 to 7.00');

Next item in the queue.
# input Identify pIC50 associated with the molecule CCn1c(-c2cccnc2[C@H](C)OC)c2c3cc(ccc31)-c1csc(n1)C[C@H](NC(=O)[C@H](C(C)C)N(C)C(=O)N1CC([C@H](C)NC)C1)C(=O)N1CCC[C@H](N1)C(=O)OCC(C)(C)C2 [Example A535]
# output 6.00 to 7.00
